Organism: Mus musculus
method_notes: In vitro inhibition of electrically stimulated contractions of isolated mouse vas deferens.
Assay type: functional
test_context: Mus musculus
Catalogue of compounds with associated IC50
measured_attribute: IC50 (nM)

>>> observed_value("Cc1c(C(=O)c2ccccc2F)c2cccc3c2n1C(CN1CCOCC1)CO3 (stereo not given)")
76
>>> observed_value("C[C@H](CCCc1ccccc1)Oc1cc(O)c2c(c1)N[C@@H](C)[C@@H]1CC[C@@H](O)C[C@@H]21")
2.3

----------
system_name: Cannabinoid receptor (Rattus norvegicus, UniProt Q9QZN9+P20272)
method_notes: Concentration required to displace 50% of 0.5 nM [3H](aminoalkyl)indole binding to cannabinoid receptor in rat cerebellum membranes
Type: cell membranes, Membrane
Response field label: string, one of True (IC50 strictly below 0.1 µM) or False.

>>> group("COc1ccc(C(=O)c2c(C)n3c4c(cccc24)OCC3CN2CCOCC2)cc1 (centres undefined)")
"False"
>>> group("C[C@H](CCCc1ccccc1)Oc1cc(O)c2c(c1)N[C@@H](C)[C@@H]1CC[C@@H](O)C[C@@H]21")
"True"
>>> group("Cc1c(C(=O)c2ccc3ncccc3c2)c2cccc3c2n1C(CN1CCOCC1)CO3 (centres undefined)")
"False"
>>> group("COc1ccc(C(=O)c2cn3c4c(cccc24)OCC3CN2CCOCC2)cc1 (centres undefined)")
"False"
>>> group("Cc1c(C(=O)c2ccccc2F)c2cccc3c2n1C(CN1CCOCC1)CO3 (centres undefined)")
"False"
>>> group("COc1ccc(C(=O)c2c(C)n3c4c(cccc24)OC[C@H]3CN2CCOCC2)cc1")
"False"
>>> group("Cc1c(C(=O)c2cccc3c(Br)cc(Br)cc23)c2cccc3c2n1[C@H](CN1CCOCC1)CO3")
"True"
>>> group("COc1ccc(C(=O)c2c(C)n3c4c(cccc24)OC[C@@H]3CN2CCOCC2)cc1")
"False"
>>> group("COc1ccc(C(=O)c2c(C)n(CCN3CCOCC3)c3ccccc23)cc1")
"False"

----------
Species: Mus musculus
method_notes: In vitro inhibition of electrically stimulated contractions of isolated mouse vas deferens.
Assay type: functional
test_context: Mus musculus
Under this convention, 1 (yes) denotes IC50 strictly below 40 nM and 0 (no) denotes IC50 at or above 40 nM.

>>> group("Cc1c(C(=O)c2ccc3ncccc3c2)c2cccc3c2n1C(CN1CCOCC1)CO3 (stereo unspecified)")
"1 (yes)"
>>> group("COc1ccc(C(=O)c2c(C)n3c4c(cccc24)OCC3CN2CCOCC2)cc1 (stereo unspecified)")
"0 (no)"
>>> group("COc1ccc(C(=O)c2c(C)n3c4c(cccc24)OC[C@@H]3CN2CCOCC2)cc1")
"0 (no)"
>>> group("O=C(c1cccc2ccccc12)c1cn2c3c(cccc13)OCC2CN1CCOCC1 (stereo unspecified)")
"1 (yes)"
>>> group("COc1ccc(C(=O)c2c(C)n3c4c(cccc24)OC[C@H]3CN2CCOCC2)cc1")
"0 (no)"
>>> group("COc1ccc(C(=O)c2c(C)n(CCN3CCOCC3)c3ccccc23)cc1 [PRAVADOLINE]")
"0 (no)"

----------
Reported IC50 values for the following molecules.
Species: Mus musculus
method_notes: In vitro inhibition of electrically stimulated contractions of isolated mouse vas deferens.
Assay type: functional
test_context: Mus musculus
measured_attribute: IC50 (µM)

>>> observed_value("COc1ccc(C(=O)c2cn3c4c(cccc24)OCC3CN2CCOCC2)cc1 (stereo not given)")
0.0455
>>> observed_value("Cc1c(C(=O)c2ccc(Br)c3ccccc23)c2cccc3c2n1C(CN1CCOCC1)CO3 (stereo not given)")
0.0022
>>> observed_value("COc1ccc(C(=O)c2c3n(c4ccccc24)C(CN2CCOCC2)CC3)cc1 (stereo not given)")
0.32

----------
system_name: Cannabinoid receptor (Rattus norvegicus, UniProt Q9QZN9+P20272)
method_notes: Concentration required to displace 50% of 0.5 nM [3H](aminoalkyl)indole binding to cannabinoid receptor in rat cerebellum membranes
Format: cell membranes, Membrane
measured_attribute: IC50 (nM)

>>> observed_value("O=C(c1cccc2ccccc12)c1cn2c3c(cccc13)OCC2CN1CCOCC1 (stereo not drawn)")
7.37
>>> observed_value("Cc1c(C(=O)c2ccc(Br)c3ccccc23)c2cccc3c2n1C(CN1CCOCC1)CO3 (stereo not drawn)")
2.32
>>> observed_value("COc1ccc(C(=O)c2c3n(c4ccccc24)C(CN2CCOCC2)CC3)cc1 (stereo not drawn)")
3053

----------
In this section we review reported IC50 values for a set of compounds.
Organism: Mus musculus
method_notes: In vitro inhibition of electrically stimulated contractions of isolated mouse vas deferens.
Assay type: functional
test_context: Mus musculus
measured_attribute: IC50

>>> observed_value("COc1ccc(C(=O)c2c3n(c4ccccc24)CC(N2CCOCC2)C3)cc1 (stereo not drawn)")
"> 10 µM"
>>> observed_value("Cc1c(C(=O)c2cccc3ccccc23)c2cccc3c2n1[C@@H](CN1CCOCC1)CO3")
"> 10 µM"
>>> observed_value("COc1ccc(C(=O)c2c(C)n3c4c(cccc24)CC(N2CCOCC2)C3)cc1 (stereo not drawn)")
"> 10 µM"
